Assign growth to each entry below.
test system: T-47D breast; test: NCI-60 one-dose screen, 48 h (100 = growth as untreated, 0 = no growth, -100 = all killed); conditions: 10 µM unless noted
About 83,000 compounds went through this panel and 20% of them were active in at least one assay; those are over-represented in the sample as a whole.
Answers are plain numbers, in %.

Observe how each entry below is paired with its result.
Compound | Output unit | growth
Nc1nc2ccc(-c3nc4ccc5[nH]ncc5c4c4c3CCCC4)cc2s1 | % | 110
CCOC(=O)c1ccc2c(c1)nc(-c1ccccc1)n2C1CCCCC1 | % | 66.8
COc1cc2c(cc1OC)C(C)N(S(N)(=O)=O)CC2 (stereo not given) | % | 93.1
CCN(C)S(=O)(=O)Nc1cccc(Nc2ncnc3cc(NC(=O)CCl)ccc23)c1Cl | % | 16

Consider the compound "COc1ccc2c(c1OC)CO[C@@H]2[C@H]1c2c(cc3c(c2OC)OCO3)CCN1S(=O)(=O)c1cn(C)cn1" . State its measured growth.
33.4
